- Test system: HCT116 FOP control reporter cell line
- Experiment: HCT116 FOPFlash control reporter assay (FOP control vector, non-functional TCF elements)
- Assay type: cell-based
- Protocol conditions: Homo sapiens, HCT-116, 36 h, HCT116 FOP control reporter cells, 36 hours incubation, luciferase expression
- Source text: In a parallel approach, HCT116 cells were cotransfected with the FOP control vector and pcDNA3. The FOP vector is identical to the TOP construct, but it contains instead of functional TCF elements a randomized, non-functional sequence. For this transfection a stable transfected cell line was generated as well.
pIC50: −log10 of the molar value.
Entries annotated with measured pIC50

# count of solved cases: 8
CN1CCN(CC(=O)Nc2cc(C(=O)Nc3nnc(-c4ccccc4)s3)ccc2OCC2CC2)CC1 : ≤ 4.30
CC(C(=O)Nc1cc(NC(=O)c2ccc(-c3ccccc3F)nc2)ccc1OC(F)(F)F)N1CCOCC1 (stereo not drawn) : 4.44
COc1ccc(NC(=O)c2ccc(-c3ccccc3)s2)cc1NC(=O)CN1CCOCC1 : ≤ 4.30
O=C(CN1CCOCC1)Nc1cc(NC(=O)c2ccc(-c3c(F)cccc3F)nc2)ccc1OC(F)(F)F : ≤ 4.30
O=C(CN1CCOCC1)Nc1cc(NC(=O)c2cnc(-c3ccccc3)s2)ccc1OC(F)(F)F : ≤ 4.30
O=C(Nc1ccc(OC(F)(F)F)c(NC(=O)C2(N3CCOCC3)CC2)c1)c1cnc(-c2ccccc2)s1 : ≤ 4.30
Cc1ccc(-c2nnc(NC(=O)c3ccc(OC(F)(F)F)c(NC(=O)CN4CCN(C)CC4)c3)s2)cc1 : 4.71
O=C(CN1CCOCC1)Nc1cc(C(=O)Nc2nnc(-c3ccc(F)cc3)s2)ccc1OC(F)(F)F : 5.03

Tested on HCT116 FOP control reporter cell line, the item `COC(=O)c1ccc(C(=O)Nc2nnc(-c3ccccc3)s2)cc1NC(=O)CN1CCOCC1` showed pIC50 equal to ≤ 4.30

Tested on HCT116 FOP control reporter cell line, the item `O=C(CN1CCOCC1)Nc1cc(C(=O)Nc2nnc(-c3cccc(F)c3)s2)ccc1OC(F)(F)F` showed pIC50 equal to 4.52

Tested on HCT116 FOP control reporter cell line, the item CC1CN(C)CCN1CC(=O)Nc1cc(C(=O)Nc2nnc(-c3ccccc3)s2)ccc1OC(F)(F)F (stereo not drawn) showed pIC50 equal to ≤ 4.30
